Origin of values: the Human Domainome abundance scans (Beltran et al. 2025)

B1: CD2-associated protein, residues 271 to 331; numbered along this chain, Q9Y5K6 (parent)
chain: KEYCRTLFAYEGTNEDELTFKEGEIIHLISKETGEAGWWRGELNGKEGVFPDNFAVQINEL

# Variants of: B1
# protocolSummary: abundance fitness (aPCA) (normalised: wild type 0, dead -1); higher = more abundant; growth selection in yeast, the domain comes from the species named
# protocolConditions: Homo sapiens
Label T for high-side abundance fitness (at or above -0.5) and F for low-side abundance fitness (below it).

[[record]]
sequencecode = "KEYCRTLFAYEGTNEDELTFKEGEIIHLISKETGEAGWWRGEDNGKEGVFPDNFAVQINEL"
category = "T"

[[record]]
sequencecode = "KEYCRTLFAYEGTNEDELTFKEGEIIHLTSKETGEAGWWRGELNGKEGVFPDNFAVQINEL"
category = "T"

[[record]]
sequencecode = "KEYCRTLFAYEGTNEDELVFKEGEIIHLISKETGEAGWWRGELNGKEGVFPDNFAVQINEL"
category = "F"

[[record]]
sequencecode = "KEYCRTLFAYEGTNEDELTFKQGEIIHLISKETGEAGWWRGELNGKEGVFPDNFAVQINEL"
category = "T"

[[record]]
sequencecode = "KEYCRTLFAYEGTNEFELTFKEGEIIHLISKETGEAGWWRGELNGKEGVFPDNFAVQINEL"
category = "T"

[[record]]
sequencecode = "KEYCRTLFAGEGTNEDELTFKEGEIIHLISKETGEAGWWRGELNGKEGVFPDNFAVQINEL"
category = "F"

[[record]]
sequencecode = "MEYCRTLFAYEGTNEDELTFKEGEIIHLISKETGEAGWWRGELNGKEGVFPDNFAVQINEL"
category = "T"

[[record]]
sequencecode = "KEYCRTLFAYEGTNEDELTFKEGEIIHLISKETGEAGWWRGELNGKEGVFPDNFAVQINEI"
category = "T"

[[record]]
sequencecode = "KEYCRTLFAYEGTNEDELTFKEGEIIHLISKETGEAGWQRGELNGKEGVFPDNFAVQINEL"
category = "F"

[[record]]
sequencecode = "KEYCRTLFAYEGTNEDELTFKEGEIIHLISKETGEAGGWRGELNGKEGVFPDNFAVQINEL"
category = "F"

[[record]]
sequencecode = "KEYCRTLFAYEGTNEDELTFKEGEIIHLISKETGEAGEWRGELNGKEGVFPDNFAVQINEL"
category = "F"

[[record]]
sequencecode = "KEYCRTLFAYEGTNEDELTFCEGEIIHLISKETGEAGWWRGELNGKEGVFPDNFAVQINEL"
category = "T"

[[record]]
sequencecode = "KEYCRTLFAYEGTNEDELTFKEGEIIHLISKETGEAGWWRGELNGKEGVFPDNFEVQINEL"
category = "F"

[[record]]
sequencecode = "KEYCRTLFFYEGTNEDELTFKEGEIIHLISKETGEAGWWRGELNGKEGVFPDNFAVQINEL"
category = "T"

[[record]]
sequencecode = "KEYCRTLFAYEGTNEDELTFKEGEIIHLISQETGEAGWWRGELNGKEGVFPDNFAVQINEL"
category = "F"

[[record]]
sequencecode = "KEYCRTLFAYEGTNEDALTFKEGEIIHLISKETGEAGWWRGELNGKEGVFPDNFAVQINEL"
category = "T"

[[record]]
sequencecode = "KEYCRTLFAYEGTNEDELTFKEGEIIHLISKETGEAGWWRGVLNGKEGVFPDNFAVQINEL"
category = "T"

[[record]]
sequencecode = "KEYCRTLFAYEGTNEDELTFKEGEIIHLISKETGEAGWWRGELNGREGVFPDNFAVQINEL"
category = "T"

[[record]]
sequencecode = "KEYCRTLFAYEGTNEDELTFKEGEIIHLISNETGEAGWWRGELNGKEGVFPDNFAVQINEL"
category = "F"

[[record]]
sequencecode = "KEYCRTLFAYEGTNEDELTFKEGEIIHLISKETGEAGWWRGELNEKEGVFPDNFAVQINEL"
category = "T"

[[record]]
sequencecode = "KEYCRTLFAYEGTNEDELTFKEGEIIHLISKETGEAGWWRGRLNGKEGVFPDNFAVQINEL"
category = "T"

[[record]]
sequencecode = "KEDCRTLFAYEGTNEDELTFKEGEIIHLISKETGEAGWWRGELNGKEGVFPDNFAVQINEL"
category = "F"

[[record]]
sequencecode = "KEYCRTLFAYEGTNEDELTFKGGEIIHLISKETGEAGWWRGELNGKEGVFPDNFAVQINEL"
category = "T"

